SYSTEM_UNDER_TEST: PERK (Homo sapiens)
Construct: GST-PERK (536-1116) cytoplasmic domain was purchased from Invitrogen; purchased Invitrogen PV5106
EXPERIMENT_DESCRIPTION: PKR-like Endoplasmic Reticulum Kinase (PERK) Assay (HTRF Format)
Type: biochemical
CONDITION_INFO: average, in at least one set of experimental runs; read-out: average pIC50 value against PERK (converted)
METRIC: IC50

What measured IC50 is associated with Cn1cc(-c2ccc3c(c2)CCN3C(=O)Cc2ccc(F)cc2)c2c(N)ncnc21 on PERK (Homo sapiens)? ≤ 2.51 nM

Query IC50 on PERK (Homo sapiens) for Cn1cc(-c2ccc3c(c2)CCN3C(=O)Cc2cc(Cl)ccc2F)c2c(N)ncnc21 ≤ 0.316 nM

Hello, I am looking for reported IC50 with PERK (Homo sapiens) for Cc1cccc(CC(=O)N2CCc3cc(-c4nn(C)c5ncnc(N)c45)ccc32)c1 . Could you help? ≤ 1 nM

Request: IC50, test system PERK (Homo sapiens), entry Cn1cc(-c2ccc3c(c2F)CCN3C(=O)Cc2ccccc2)c2c(N)ncnc21 ≤ 0.316 nM

###

SYSTEM_UNDER_TEST: PERK (Homo sapiens)
Construct: GST-PERK (536-1116) cytoplasmic domain was purchased from Invitrogen; purchased Invitrogen PV5106
Sequence (Q9NZJ5 536-1116): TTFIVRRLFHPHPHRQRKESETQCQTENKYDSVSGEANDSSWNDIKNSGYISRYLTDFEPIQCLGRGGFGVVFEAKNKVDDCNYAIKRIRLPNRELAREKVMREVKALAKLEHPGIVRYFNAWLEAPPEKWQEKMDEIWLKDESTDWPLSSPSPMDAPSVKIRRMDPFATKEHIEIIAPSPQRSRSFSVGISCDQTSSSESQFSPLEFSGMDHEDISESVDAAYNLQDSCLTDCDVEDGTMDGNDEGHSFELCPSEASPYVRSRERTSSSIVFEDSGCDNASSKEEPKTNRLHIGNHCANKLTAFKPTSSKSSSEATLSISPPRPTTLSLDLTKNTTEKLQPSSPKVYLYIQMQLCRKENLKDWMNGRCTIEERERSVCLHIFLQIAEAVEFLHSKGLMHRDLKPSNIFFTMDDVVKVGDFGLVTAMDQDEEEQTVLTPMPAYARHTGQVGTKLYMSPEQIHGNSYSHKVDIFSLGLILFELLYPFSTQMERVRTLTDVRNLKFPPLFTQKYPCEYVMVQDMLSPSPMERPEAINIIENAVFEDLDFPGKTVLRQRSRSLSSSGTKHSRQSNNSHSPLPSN
EXPERIMENT_DESCRIPTION: PKR-like Endoplasmic Reticulum Kinase (PERK) Assay (HTRF Format)
Type: biochemical
CONDITION_INFO: average, in at least one set of experimental runs; read-out: average pIC50 value against PERK (converted)
METRIC: IC50

IC50 for Cc1cccc(CC(=O)N2CCc3c2ccc(-c2cn(C)c4ncnc(N)c24)c3F)n1 ? ≤ 1 nM

# get_value(readout='IC50', item= NCCc1cnc(N)c2c(-c3ccc4c(c3F)CCN4C(=O)Cc3cc(F)ccc3F)coc12 ) ≤ 2.51 nM

Find the recorded IC50 belonging to Cn1cc(-c2ccc3c(c2)CCN3C(=O)Cc2ccccc2)c2c(N)ncnc21 and report it. ≤ 2.51 nM

What does the data say about its IC50? Entry: Cn1cc(-c2ccc3c(c2)CCN3C(=O)Cc2cccc(Cl)c2)c2c(N)ncnc21 ≤ 0.316 nM

# input molecule: Cn1cc(-c2ccc3c(c2)CCN3C(=O)Cc2cccc(C(F)(F)F)n2)c2c(N)ncnc21 ; wanted: its IC50 ≤ 1 nM

I would be grateful if you could share the reported IC50 for Cc1cccc(CC(=O)N2CCc3cc(-c4cncc5[nH]nc(N)c45)ccc32)c1 . ≤ 0.316 nM

What does the data say about its IC50? Entry: Cc1ccc(F)c(CC(=O)N2CCc3cc(-c4cn(C)c5ncnc(N)c45)ccc32)c1 ≤ 1 nM

Sample Nc1ncc(C2=CCNCC2)c2scc(-c3ccc4c(c3)CCN4C(=O)Cc3ccccc3)c12 — what was its IC50? ≤ 2.51 nM

All figures here come from patent US20120077828A1.
